# TGI annotations
System: SN12C renal
test.name: NCI tumour cell line growth inhibition, 48 h

Some solved entries appear below for comparison.
Nc1nc(SCc2ccccn2)c2ncn(C3CCCC3)c2n1: > 100 µM
Cc1c2c(nn1-c1ccc(S(=O)(=O)NC(=S)Nc3ccccc3)cc1)-c1ccccc1CC2: > 50 µM
CC1OC(OCC2OC(Oc3c(-c4ccc(O)cc4)oc4cc(O)cc(O)c4c3=O)C(OC3OCC(O)(CO)C3O)C(O)C2O)C(O)C(O)C1O (stereo not drawn): > 100 µM
CCOC(=O)[C@@]1(C)C=C2O[C@@H]3OC4(CCCCC4)O[C@@H]3C2=C2C(O)=CC=C(O)[C@]21C(=O)OC: > 68 µM
N=C1C(c2nc(-c3ccc(Br)cc3)cs2)=C(O)CN1Cc1cccnc1: > 100 µM
CCOc1ccccc1NC(=O)C(=O)CC(=O)c1c(C)n([O-])c2ccccc2[n+]1=O: > 100 µM
O=C(c1ccccc1)C(C(=O)c1ccccc1)C1(O)C(=O)c2ccccc2C1=O: > 100 µM
CNC(=O)c1cc(OC2CCC(NC(=O)Nc3ccc(Cl)c(C(F)(F)F)c3)CC2)ccn1 (stereo not drawn): 22.1 µM
COC1C(O)CC(OC2C(C)OC(Oc3cc(O)c4c(O)c5c(cc4c3)C[C@@H]([C@H](OC)C(=O)[C@@H](O)[C@@H](C)O)[C@H](OC3CC(OC4CC(OC6CC(C)(O)C(O)C(C)O6)C(O)C(C)O4)C(O)C(C)O3)C5=O)CC2OC(C)=O)OC1C (stereo partly drawn): > 100 µM
Cc1cnc2c(C)ccc([N+](=O)[O-])c2c1NCCCN(C)C: > 100 µM

Fill in the blank: the reported TGI of CCOC/N=C(/N)NC#N is ____. > 100 µM

Fill in the blank: the reported TGI of Cc1c(C)c(C)c(-n2[nH]c(=O)n(C)c2=O)c(C)c1C is ____. > 100 µM

Fill in the blank: the reported TGI of O=[N+]([O-])C1C(c2ccccc2)C12c1ccccc1-c1ccccc12 (stereo not drawn) is ____. 26 µM

Fill in the blank: the reported TGI of C=C1C(=O)O[C@H]2[C@H]1CC/C(COC(=O)c1cc3cc(F)ccc3[nH]1)=C\CC[C@@]1(C)O[C@@H]21 is ____. 3.92 µM

Fill in the blank: the reported TGI of CCNC(=O)Nc1cccc(C)n1 is ____. > 100 µM

Fill in the blank: the reported TGI of CC(=O)O[C@H]1CC[C@@]2(C)C(=CC[C@@H]3[C@@H]2CC[C@]2(C)C(c4cccnc4)=CC[C@@H]32)C1 is ____. > 100 µM

Fill in the blank: the reported TGI of COc1ccc(N[C@H](CS(=O)c2ccc(C)cc2)c2ccc(F)cc2)cc1 (stereo partly drawn) is ____. > 100 µM

Fill in the blank: the reported TGI of COc1ccc2c(c1)/C(=C\c1c(C)nc3sc(C)cn13)C(=O)N2C is ____. 32.3 µM

----------
Test system: SF-295 CNS
test.name: NCI tumour cell line growth inhibition, 48 h
observation.type: TGI (µM)
Value expressed in µM; do not type the unit.

Some solved entries appear below for comparison.
O=[N+]([O-])c1cccc(-c2csc(N=Nc3c(O)[nH]c4ccccc34)n2)c1: 44.4
c1ccc(CNc2c3c(nc4ccccc24)CCC3)cc1: 22
COC(=O)/C=C/c1ccccc1N=[S@](C)(=O)c1ccc(C)cc1: 76.9

# input for lookup
Recorded TGI for CN(C)c1cccc2c(S(=O)(=O)N[C@H]3CC[C@H]4[C@@H]5CCc6cc(O)ccc6[C@H]5CC[C@]34C)cccc12 with SF-295 CNS, please? 2.7
